Tested system: T1, human recombinant soluble CD73 protein (human, UniProt P21589 27-547)
T1 construct: also called huCD73; rhCD73
T1 sequence: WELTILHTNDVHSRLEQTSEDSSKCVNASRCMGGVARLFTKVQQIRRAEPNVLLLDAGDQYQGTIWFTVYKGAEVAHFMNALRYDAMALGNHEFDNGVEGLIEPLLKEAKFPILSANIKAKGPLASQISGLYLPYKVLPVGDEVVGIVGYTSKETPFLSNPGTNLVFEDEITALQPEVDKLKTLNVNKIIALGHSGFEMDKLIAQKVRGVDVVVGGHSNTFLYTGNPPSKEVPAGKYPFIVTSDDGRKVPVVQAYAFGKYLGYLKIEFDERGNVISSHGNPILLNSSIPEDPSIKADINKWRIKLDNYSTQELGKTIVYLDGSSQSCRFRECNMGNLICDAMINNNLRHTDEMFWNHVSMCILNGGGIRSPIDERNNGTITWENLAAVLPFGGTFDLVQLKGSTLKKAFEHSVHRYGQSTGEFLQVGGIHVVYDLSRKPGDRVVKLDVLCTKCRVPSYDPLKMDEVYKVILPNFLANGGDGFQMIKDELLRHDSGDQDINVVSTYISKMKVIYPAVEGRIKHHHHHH
Test name: SPR, Ab captured on Protein A, soluble huCD73 as analyte
Entries and their koff values follow.
Express it in s⁻¹; write the number only.

- H1L3 (antibody, human IgG1, V domains shown) VH: QIQLVQSGAEVKKPGASVKVSCKASGYTFTSYNMYWVRQAPGQRLEWMGYIDPYNGGSSYNLTFKGRVTITRDKSASTAYMELSSLRSEDTAVYYCARGYGNYKAWFAYWGQGTLVTVSS VL: DVQMTQSPSSLSASVGDRVTITCKASQSVSNDVAWYQQKPGKAPKLLIYYASTRYTGVPDRFSGSGYGTDFTFTISSLQPEDIATYYCQQDYSSLTFGQGTKLEIK: 7.2e-05
- H4L0 (antibody, human IgG1, V domains shown, L0 VL limits counted by alignment with L1) VH: QIQLVQSGAEVKKPGASVKVSCKASGYAFASYNMYWVRQAPGQSLEWIGYIDPYNGGSSYNLTFKGKATLTVDKSASTAYMELSSLRSEDTAVYYCARGYGNYKAWFAYWGQGTLVTVSS VL: DIQMTQSPSSLSASVGDRVTITCKASQSVSNDVAWYQQKPGKAPKLLIYYASTRYTGVPSRFSGSGSGTDFTFTISSLQPEDIATYYCQQDYSSLTFGQGTKLEIK: 0.00123

Request: What measured koff goes with H0L2 (antibody, human IgG1, V domains shown, H0 VH limits counted by alignment with H1) VH: QVQLVQSGAEVKKPGASVKVSCKASGYTFTSYNMYWVRQAPGQRLEWMGYIDPYNGGSSYNLTFKGRVTITRDTSASTAYMELSSLRSEDTAVYYCARGYGNYKAWFAYWGQGTLVTVSS VL: DIQMTQSPSSLSASVGDRVTITCKASQSVSNDVAWYQQKPGKAPKLLIYYASTRYTGVPDRFSGSGYGTDFTFTISSLQPEDIATYYCQQDYSSLTFGQGTKLEIK ?
Response: 0.000119
